test system: LOX IMVI; test: NCI tumour cell line growth inhibition, 48 h
Active and inactive are the calls of the source. Rule as the data show it: active = GI50 up to about 1.1 µM and inactive = higher.
Endpoint Label: GI50

compound=CC(C)CCNC(=O)c1ccc(CNC(=O)/C=C/c2cccc(Oc3ccccc3)c2)cc1 reported_measurement="37.2 µM (inactive)"
compound=O=C(O)CNc1cc(-c2ccccc2)nc(NCC(=O)O)n1 reported_measurement="> 100 µM (inactive)"
compound=N#CCCN(CCC#N)c1ccc(C(=O)NN)cc1 reported_measurement="> 100 µM (inactive)"

Ask | Give its GI50 value. Item: CC1=C(C)SC(=C2Sc3c(n(C)c(=O)[nH]c3=O)S2)S1
Reply | > 100 µM (inactive)

Ask | Give its GI50 value. Item: Cc1ccc(S(=O)(=O)N(/N=C(\N)Oc2ccc(Cl)cc2)C(=N)Oc2ccc(Cl)cc2)cc1
Reply | > 100 µM (inactive)

Ask | Give its GI50 value. Item: CC1=NN(C2=NS(=O)(=O)c3ccccc3N2C)C(=O)C1
Reply | > 100 µM (inactive)

Ask | Give its GI50 value. Item: COc1ccc(NC(=O)C(=O)Cc2nc3ccc([N+](=O)[O-])cc3nc2O)c(OC)c1
Reply | 87.9 µM (inactive)

Ask | Give its GI50 value. Item: COC(=O)C(CNC(=O)/C=C/c1ccc(OC(C)=O)c(OC(C)=O)c1)NC(=O)/C=C/c1ccc(OC(C)=O)c(OC(C)=O)c1 (stereo not drawn)
Reply | > 100 µM (inactive)

====

tested on: MOLT-4; test: NCI tumour cell line growth inhibition, 48 h
Calls of active or inactive are those of the source. No stated cut-off is given here; in the data, active = GI50 up to about 1.1 µM and inactive = higher.
Endpoint Label: GI50

Solved entries (count: 10):
compound=O=C(n1[nH]c(=O)n(-c2ccc([N+](=O)[O-])cc2)c1=O)C(Cl)(Cl)Cl reported_measurement="> 75 µM (inactive)"
compound=O=C(O)CN1CCNCCNCC1 reported_measurement="> 100 µM (inactive)"
compound="CCCCCCCCCCCC(=O)OC(COC(N)=O)COc1ccc(Cl)cc1 (stereo unspecified)" reported_measurement="23.7 µM (inactive)"
compound=CN(C)C(=S)N1C(=S)N(c2ccccc2)C(=N/c2ccccc2)/C1=N\c1ccccc1 reported_measurement="> 100 µM (inactive)"
compound=COC(=O)c1ccc(CCc2cc(O)c(Br)cc2O)cc1 reported_measurement="2.42 µM (inactive)"
compound=COc1cc(C2C3=C(CCCC3=O)N(c3ccc(C)cc3)C3=C2C(=O)CCC3)c([N+](=O)[O-])cc1OC reported_measurement="24.2 µM (inactive)"
compound=COc1cccc(/C=C(\NC(C)=O)c2nc3cc(Cl)ccc3[nH]2)c1 reported_measurement="> 100 µM (inactive)"
compound=Cc1nc2ccc(NC(=S)Nc3ccccc3)cc2c(=O)n1-c1ccccc1 reported_measurement="48.9 µM (inactive)"
compound=CCOC(=O)N/N=C(/OCC)c1ccccc1 reported_measurement="> 100 µM (inactive)"
compound="Fc1cccc(F)c1C1SCc2nc3cc4ccccc4cc3n21 (stereo unspecified)" reported_measurement="15.3 µM (inactive)"

Ask | Give its GI50 value. Item: COC(=O)c1c(CC(Cc2ccc3c(c2)CCCC3)C(=O)OC)ccc2c1CCCC2 (stereo unspecified)
Reply | 27.2 µM (inactive)

Ask | Give its GI50 value. Item: COC(=O)C1=CSC2(S1)C(C(=O)OC)=CSc1c2ssc1=O (stereo unspecified)
Reply | 1.97 µM (inactive)

Ask | Give its GI50 value. Item: CC(=O)/C(=C\c1cccc([N+](=O)[O-])c1)C(=O)Nc1ccccc1C
Reply | 39.5 µM (inactive)

Ask | Give its GI50 value. Item: CC1(C)CC(N2CCN(C3CC(C)(C)NC(C)(C)C3)CC2)CC(C)(C)N1
Reply | > 100 µM (inactive)

Ask | Give its GI50 value. Item: CCCCCCCCCCCCCCCCCC(=O)Nc1ccn(C2OC(CO)C(O)C2O)c(=O)n1 (stereo unspecified)
Reply | 0.343 µM (active)

Ask | Give its GI50 value. Item: CC1=NN(C2=NS(=O)(=O)c3ccccc3N2C)C(=O)C1
Reply | > 100 µM (inactive)

Ask | Give its GI50 value. Item: c1ccc(/C(=N/Nc2nc3ccccc3s2)C2CCCCC2)nc1
Reply | 0.203 µM (active)
